test system: SK-MEL-5; assay: Growth inhibition of human SK-MEL-5 cells after 48 hrs by sulforhodamine B assay; format: functional, cell-based; conditions: Homo sapiens, SK-MEL-5, 48 h; read-out: IC50
pIC50: −log10 of the molar value.

compound	pIC50
CC(=O)Nc1cccc(-c2ccc(-c3ccnc(NC(=O)Nc4cc(C(F)(F)F)cc(C(F)(F)F)c4)n3)cn2)c1.Cl	5.87

----------
pIC50 for assorted compounds
tested on: ACHN; experiment: Growth inhibition of human ACHN cells after 48 hrs by sulforhodamine B assay; format: functional, cell-based
pIC50: −log10 of the molar value.
measurementType: pIC50

compound	endpointResult
CC(=O)c1ccccc1-c1ccc(-c2ccnc(NC(=O)Nc3cc(N4CCOCC4)cc(C(F)(F)F)c3)n2)cn1	5.16
CC(=O)Nc1cccc(-c2ccc(-c3ccnc(NC(=O)Nc4cc(C(F)(F)F)cc(C(F)(F)F)c4)n3)cn2)c1.Cl	5.42
